procedure.text: Porcine-PK study of BuMA Supreme stent (blood, myocardium, coronary artery tissue)
Format: in vivo, Yucatan Miniature Swine
conditions: Yucatan miniature swine, pig, coronary artery, stented segment, other: drug-eluting stent implanted in coronary arteries, study day 60; read-out: Arterial drug concentration
experimental.endpoint: concentration at 60 days (ng/g)
One number for each entry, in ng/g.

[Q] # get_value(readout='concentration at 60 days', item= CO[C@H]1C[C@@H]2CC[C@@H](C)[C@@](O)(O2)C(=O)C(=O)N2CCCC[C@H]2C(=O)O[C@H]([C@H](C)C[C@@H]2CC[C@@H](O)[C@H](OC)C2)CC(=O)[C@H](C)/C=C(\C)[C@@H](O)[C@@H](OC)C(=O)[C@H](C)C[C@H](C)/C=C/C=C/C=C/1C [Rapamycin, Sirolimus (rapamycin)] )
[A] 922

* * *

procedure.text: Porcine-PK study of BuMA Supreme stent (blood, myocardium, coronary artery tissue)
Format: in vivo, Yucatan Miniature Swine
conditions: Yucatan miniature swine, pig, coronary artery, stented segment, other: drug-eluting stent implanted in coronary arteries, study day 28; read-out: Arterial drug concentration
experimental.endpoint: concentration at 28 days (ng/g)
Give bare numbers, in ng/g.

[Q] Returns the measured concentration at 28 days for the input compound. Input: CO[C@H]1C[C@@H]2CC[C@@H](C)[C@@](O)(O2)C(=O)C(=O)N2CCCC[C@H]2C(=O)O[C@H]([C@H](C)C[C@@H]2CC[C@@H](O)[C@H](OC)C2)CC(=O)[C@H](C)/C=C(\C)[C@@H](O)[C@@H](OC)C(=O)[C@H](C)C[C@H](C)/C=C/C=C/C=C/1C [Rapamycin, Sirolimus (rapamycin)]
[A] 6780

* * *

procedure.text: Porcine-PK study of BuMA Supreme stent (blood, myocardium, coronary artery tissue)
Type: in vivo, Yucatan Miniature Swine
conditions: Yucatan miniature swine, pig, coronary artery, stented segment, other: drug-eluting stent implanted in coronary arteries, study day 7; read-out: Arterial drug concentration
experimental.endpoint: concentration at 7 days (ng/g)
Answers are plain numbers, in ng/g.

[Q] I am curious: what concentration at 7 days value has been reported for CO[C@H]1C[C@@H]2CC[C@@H](C)[C@@](O)(O2)C(=O)C(=O)N2CCCC[C@H]2C(=O)O[C@H]([C@H](C)C[C@@H]2CC[C@@H](O)[C@H](OC)C2)CC(=O)[C@H](C)/C=C(\C)[C@@H](O)[C@@H](OC)C(=O)[C@H](C)C[C@H](C)/C=C/C=C/C=C/1C [Rapamycin, Sirolimus (rapamycin)] ?
[A] 2580
